Recorded EC50 by entry
Target: human CB1 receptors (Homo sapiens (Human), UniProt P21554)
Sequence (P21554 whole entry): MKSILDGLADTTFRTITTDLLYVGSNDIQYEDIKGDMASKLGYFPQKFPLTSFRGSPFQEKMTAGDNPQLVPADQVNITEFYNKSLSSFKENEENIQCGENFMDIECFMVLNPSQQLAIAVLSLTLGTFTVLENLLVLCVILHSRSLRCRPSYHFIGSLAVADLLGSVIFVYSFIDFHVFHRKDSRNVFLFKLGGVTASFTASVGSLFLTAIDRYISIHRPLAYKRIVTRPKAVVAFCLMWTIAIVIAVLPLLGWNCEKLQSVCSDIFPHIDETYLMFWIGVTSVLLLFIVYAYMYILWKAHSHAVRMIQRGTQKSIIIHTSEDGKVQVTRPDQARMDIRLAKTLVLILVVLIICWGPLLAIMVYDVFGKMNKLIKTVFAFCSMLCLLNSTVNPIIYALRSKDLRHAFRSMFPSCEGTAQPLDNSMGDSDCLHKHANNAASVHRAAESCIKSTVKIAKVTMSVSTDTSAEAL
Assay: functional cAMP assay, CB1
Conditions: CHO cells expressing human CB1

Bench note, human CB1 receptors (Homo sapiens (Human), UniProt P21554): `Cn1nnnc1Cn1cnc2c(N3CCC(F)(F)C3)nc(NC(C)(C)C)nc21` , EC50 reads > 10 µM

Bench note, human CB1 receptors (Homo sapiens (Human), UniProt P21554): CC(C)(C)c1nc(N2CCC(O)C2)c2ncn(Cc3cccnc3Cl)c2n1 (stereo not drawn) , EC50 reads > 10 µM

Bench note, human CB1 receptors (Homo sapiens (Human), UniProt P21554): `CC(C)(C)c1nc(N2CCC3(COC3)C2)c2ncn(Cc3c[nH]nc3C(F)(F)F)c2n1` , EC50 reads > 10 µM

More entries:
Bench note, human CB1 receptors (Homo sapiens (Human), UniProt P21554): `CC(C)(C)c1nc(N2CCC(F)(F)C2)c2ncn(CCc3cccnc3)c2n1` , EC50 reads > 10 µM

Bench note, human CB1 receptors (Homo sapiens (Human), UniProt P21554): CC(C)(C)c1nc(N2CCC(O)C2)c2ncn(Cc3ccccc3S(C)(=O)=O)c2n1 (stereo not drawn) , EC50 reads > 10 µM

Bench note, human CB1 receptors (Homo sapiens (Human), UniProt P21554): `CC(C)(C)c1nc(N2CC[C@H](O)[C@H]2CO)c2ncn(Cc3ncccc3Cl)c2n1` , EC50 reads > 10 µM

Bench note, human CB1 receptors (Homo sapiens (Human), UniProt P21554): `CC1(O)CN(c2nc(C(C)(C)C)nc3c2ncn3Cc2ncccc2Cl)C1` , EC50 reads > 10 µM

----------
Recorded EC50 by entry
Molecular target: human CB1 receptors (Homo sapiens (Human))
Experiment: functional cAMP assay, CB1
Settings: CHO cells expressing human CB1

These solved cases illustrate the format of a correct answer.
For CC1(O)CCN(c2nc(C(C)(C)C)nc3c2ncn3Cc2ncccc2Cl)C1 (centres unmarked) the compound record lists EC50 as > 10 µM

For Cc1noc(Cn2cnc3c(N4CCC(O)C4)nc(C(C)(C)C)nc32)n1 (centres unmarked) the compound record lists EC50 as > 10 µM

For `Cc1nonc1Cn1cnc2c(N3CCC(F)(F)C3)nc(NC(C)(C)C)nc21` the compound record lists EC50 as > 10 µM

For COCCn1cnc2c(N3CCC(O)C3)nc(C(C)(C)C)nc21 (centres unmarked) the compound record lists EC50 as > 10 µM

For `Cc1nonc1Cn1cnc2c(N3CCC4(COC4)C3)nc(C(C)(C)C)nc21` the compound record lists EC50 as > 10 µM

For `CC(=O)N[C@H]1CCN(c2nc(C(C)(C)C)nc3c2ncn3Cc2c[nH]nc2C(F)(F)F)C1` the compound record lists EC50 as > 10 µM

More entries:
For `Cc1nnc(Cn2cnc3c(N4CC(F)(F)C(F)(F)C4)nc(C(C)(C)C)nc32)o1` the compound record lists EC50 as > 10 µM

For `Cn1nnnc1Cn1cnc2c(N3CCC(F)(F)C3)nc(C(C)(C)C)nc21` the compound record lists EC50 as > 10 µM

For `Cc1nonc1Cn1cnc2c(N3CC[C@H](O)C3)nc(C(C)(C)C)nc21` the compound record lists EC50 as > 10 µM

----------
Target: human CB1 receptors (Homo sapiens (Human))
Assay: functional cAMP assay, CB1
Conditions: CHO cells expressing human CB1
Recorded EC50 by entry

These solved cases illustrate the format of a correct answer.
For `CC(C)(C)c1nc(N2CCC3(COC3)C2)c2ncn(Cc3cccc(Cl)c3)c2n1` the molecule record lists EC50 as > 10 µM

For Cc1nonc1Cn1cnc2c(N3CCC(C)(O)C3)nc(C(C)(C)C)nc21 (centres unmarked) the molecule record lists EC50 as > 10 µM

For CC(C)(C)c1nc(N2CCC(O)C2)c2ncn(Cc3ccccc3C(F)(F)F)c2n1 (centres unmarked) the molecule record lists EC50 as > 10 µM

For `COCCn1cnc2c(N3CCC(F)(F)C3)nc(C(C)(C)C)nc21` the molecule record lists EC50 as > 10 µM

For `CC(=O)N[C@H]1CCN(c2nc(C(C)(C)C)nc3c2ncn3Cc2cccc(Cl)c2)C1` the molecule record lists EC50 as > 10 µM

For `CC(C)(C)c1nc(N2CCC3(COC3)C2)c2ncn(Cc3ncccc3Cl)c2n1` the molecule record lists EC50 as > 10 µM

For `CC(=O)N[C@H]1CCN(c2nc(C(C)(C)C)nc3c2ncn3Cc2ccc(Cl)cc2)C1` the molecule record lists EC50 as > 10 µM

For `Cc1nonc1Cn1cnc2c(N3CCN(C)CC3)nc(C(C)(C)C)nc21` the molecule record lists EC50 as > 10 µM

More entries:
For `CC(C)(C)c1nc(N2CCC3(COC3)C2)c2ncn(Cc3ccc(Cl)cc3)c2n1` the molecule record lists EC50 as > 10 µM

For CC(C)(C)c1nc(N2CCC(O)C2)c2ncn(CC3CCCCC3)c2n1 (centres unmarked) the molecule record lists EC50 as > 10 µM

For `CC(=O)N[C@H]1CCN(c2nc(C(C)(C)C)nc3c2ncn3Cc2ccccc2C(F)(F)F)C1` the molecule record lists EC50 as > 10 µM

For `Cc1noc(Cn2cnc3c(N4CCC(F)(F)C4)nc(OCC(C)(C)C)nc32)n1` the molecule record lists EC50 as > 10 µM

For `CC(C)(C)c1nc(N2CC[C@H](O)C2)c2ncn(Cc3ccc(Cl)cc3)c2n1` the molecule record lists EC50 as > 10 µM

For `CC(C)(C)c1nc(N2CC(F)(F)C(F)(F)C2)c2ncn(CCC(F)(F)F)c2n1` the molecule record lists EC50 as > 10 µM

For `CC(C)(C)c1nc(N2CCC3(COC3)C2)c2ncn(Cc3ccccc3C(F)(F)F)c2n1` the molecule record lists EC50 as > 10 µM

For `CC(C)(C)c1nc(N2CC[C@H](O)C2)c2ncn(Cc3nnnn3CC3CC3)c2n1` the molecule record lists EC50 as > 10 µM

For `CC(=O)N[C@H]1CCN(c2nc(C(C)(C)C)nc3c2ncn3Cc2nonc2C)C1` the molecule record lists EC50 as > 10 µM

----------
Target: human CB2 receptors (Homo sapiens (Human), UniProt P34972)
Sequence (P34972 whole entry): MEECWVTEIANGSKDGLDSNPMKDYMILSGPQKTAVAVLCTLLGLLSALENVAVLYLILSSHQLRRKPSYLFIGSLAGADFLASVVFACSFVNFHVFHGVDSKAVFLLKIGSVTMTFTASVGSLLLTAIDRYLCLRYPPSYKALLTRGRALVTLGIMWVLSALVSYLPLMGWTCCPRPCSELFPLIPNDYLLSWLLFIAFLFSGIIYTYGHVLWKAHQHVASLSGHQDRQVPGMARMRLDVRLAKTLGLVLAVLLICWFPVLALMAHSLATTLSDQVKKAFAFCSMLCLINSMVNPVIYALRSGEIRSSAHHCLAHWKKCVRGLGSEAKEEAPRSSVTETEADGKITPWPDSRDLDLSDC
Assay: functional cAMP assay, CB2
Conditions: CHO cells expressing human CB2
So basically, if EC50 comes in under 0.07 µM it's satisfied, and if it's 0.07 µM or more it's not satisfied.

Solved cases below.
Asked: Confirm or reject: EC50 of CC(C)(C)c1nc(N2CC[C@H](O)C2)c2ncn(Cc3nnnn3CC3CC3)c2n1 [Example 164] lies strictly below 0.07 µM
Given back: satisfied

Asked: Confirm or reject: EC50 of CC(C)(C)c1nc(N2CC[C@H](O)C2)c2ncn(Cc3ccccc3Cl)c2n1 [Example 97] lies strictly below 0.07 µM
Given back: satisfied

Asked: Confirm or reject: EC50 of CC(C)(C)COc1nc(N2CCC(C)(O)C2)c2ncn(Cc3ccccc3Cl)c2n1 (stereo not shown) [Example 131] lies strictly below 0.07 µM
Given back: satisfied

Asked: Confirm or reject: EC50 of COCCn1cnc2c(N3CC[C@H](O)C3)nc(C(C)(C)C)nc21 [Example 94] lies strictly below 0.07 µM
Given back: not satisfied

Asked: Confirm or reject: EC50 of Cc1nonc1Cn1cnc2c(N3CCC(F)(F)C3)nc(OCC(C)(C)C)nc21 [Example 140] lies strictly below 0.07 µM
Given back: satisfied

More entries:
Asked: Confirm or reject: EC50 of COc1ccc(Cn2cnc3c(N4CCC(F)(F)C4)nc(C(C)(C)C)nc32)cc1 [Example 20] lies strictly below 0.07 µM
Given back: satisfied

Asked: Confirm or reject: EC50 of CC(C)(C)c1nc(N2CCC(O)C2)c2ncn(CCc3ccccc3)c2n1 (stereo not shown) [Example 38] lies strictly below 0.07 µM
Given back: satisfied

Asked: Confirm or reject: EC50 of Cc1nonc1Cn1cnc2c(N3CCSC3)nc(C(C)(C)C)nc21 [Example 150] lies strictly below 0.07 µM
Given back: satisfied

Asked: Confirm or reject: EC50 of CC(C)(C)c1nc(N2CC[C@H](O)C2)c2ncn(Cc3ncccc3Cl)c2n1 [Example 92] lies strictly below 0.07 µM
Given back: satisfied

Asked: Confirm or reject: EC50 of CC(C)(C)c1nc(N2CC(F)(F)C(F)(F)C2)c2ncn(Cc3ccccc3C(F)(F)F)c2n1 [Example 105] lies strictly below 0.07 µM
Given back: satisfied

Asked: Confirm or reject: EC50 of CC(C)(C)COc1nc(N2CCC(F)(F)C2)c2ncn(Cc3ccccc3C(F)(F)F)c2n1 [Example 125] lies strictly below 0.07 µM
Given back: satisfied

Asked: Confirm or reject: EC50 of CC(C)(C)c1nc(N2CCC(O)C2)c2ncn(Cc3ccccc3C(F)(F)F)c2n1 (stereo not shown) [Example 28] lies strictly below 0.07 µM
Given back: satisfied

Asked: Confirm or reject: EC50 of CC(C)(C)c1nc(N2CCC(F)(F)C2)c2ncn(CCc3ccccc3)c2n1 [Example 13] lies strictly below 0.07 µM
Given back: satisfied

Asked: Confirm or reject: EC50 of COCCn1cnc2c(N3CCC4(COC4)C3)nc(C(C)(C)C)nc21 [Example 63] lies strictly below 0.07 µM
Given back: not satisfied

Asked: Confirm or reject: EC50 of CC(C)(C)c1nc(N2CCC(F)(F)C2)c2ncn(CCc3cccnc3)c2n1 [Example 23] lies strictly below 0.07 µM
Given back: satisfied

Asked: Confirm or reject: EC50 of Cn1nnnc1Cn1cnc2c(N3CC[C@H](O)C3)nc(C(C)(C)C)nc21 [Example 95] lies strictly below 0.07 µM
Given back: not satisfied

Asked: Confirm or reject: EC50 of CC(C)(C)COc1nc(N2CCC(F)(F)C2)c2ncn(Cc3ccccc3S(C)(=O)=O)c2n1 [Example 126] lies strictly below 0.07 µM
Given back: satisfied

Asked: Confirm or reject: EC50 of Cc1nonc1Cn1cnc2c(N3CCC[C@@H]3CO)nc(C(C)(C)C)nc21 [Example 145] lies strictly below 0.07 µM
Given back: satisfied

Asked: Confirm or reject: EC50 of Cc1noc(Cn2cnc3c(N4CCC(F)(F)C4)nc(C(C)(C)C)nc32)n1 [Example 7] lies strictly below 0.07 µM
Given back: satisfied

Asked: Confirm or reject: EC50 of CC(C)(C)c1nc(N2CC(O)(C(F)(F)F)C2)c2ncn(Cc3ncccc3Cl)c2n1 [Example 167] lies strictly below 0.07 µM
Given back: satisfied

Asked: Confirm or reject: EC50 of CC(C)(C)Nc1nc(N2CC3(COC3)C2)c2ncn(Cc3ccccc3Cl)c2n1 [Example 138] lies strictly below 0.07 µM
Given back: not satisfied

Asked: Confirm or reject: EC50 of CC(=O)N[C@H]1CCN(c2nc(C(C)(C)C)nc3c2ncn3Cc2ccc(Cl)cc2)C1 [Example 50] lies strictly below 0.07 µM
Given back: not satisfied

Asked: Confirm or reject: EC50 of CC(C)(C)c1nc(N2CCC(F)(F)C2)c2ncn(Cc3ccc(Cl)cc3)c2n1 [Example 1] lies strictly below 0.07 µM
Given back: satisfied

Asked: Confirm or reject: EC50 of Cc1ccc(Cn2cnc3c(N4CCC(O)C4)nc(C(C)(C)C)nc32)cc1 (stereo not shown) [Example 39] lies strictly below 0.07 µM
Given back: satisfied

These entries and their values trace back to patent US9505762B2.
